# TARGET OF ASSAY: Dimer of Gag-Pol polyprotein [489-587] (Human immunodeficiency virus 1, UniProt P12497)
# Construct: 489-587
# ASSAY PROTOCOL: Protease Inhibition Assay
# EXPERIMENTAL CONDITIONS: pH 5.5; 30 °C
Overview of reported pIC50 across a group of compounds:
Here pIC50 is given on a logarithmic scale as minus log10 of the concentration in mol/L.

Below: 4 compounds and their reported pIC50.
CHEMICAL SMILES	pIC50
CC(C)(C)OC(=O)N[C@@H](Cc1ccccc1)[C@@H](O)C[C@@H](Cc1ccc(OCC(=O)N2CCOCC2)cc1)C(=O)N[C@H]1c2ccccc2C[C@H]1O	9.70
CC(C)(C)OC(=O)N[C@@H](Cc1ccc(O)cc1)[C@@H](O)C[C@@H](Cc1ccc(O)cc1)C(=O)N[C@H]1c2ccccc2C[C@H]1O	9.82
CN1CCN(CCOc2ccc(C[C@H](C[C@H](O)[C@H](Cc3ccccc3)NC(=O)OC(C)(C)C)C(=O)N[C@H]3c4ccccc4C[C@H]3O)cc2)CC1	9.70
CC(C)(C)OC(=O)N[C@@H](Cc1ccccc1)[C@@H](O)C[C@@H](Cc1ccc(OCCN2CC[S+]([O-])CC2)cc1)C(=O)N[C@H]1c2ccccc2C[C@H]1O	10.15

Item under review: `CN(C)CCOc1ccc(C[C@H](C[C@H](O)[C@H](Cc2ccccc2)NC(=O)OC(C)(C)C)C(=O)N[C@H]2c3ccccc3C[C@H]2O)cc1` . Reported pIC50?
8.68

Subsequent entry: `CC(C)(C)OC(=O)N[C@@H](Cc1ccccc1)[C@@H](O)C[C@@H](Cc1ccc(OCC[N+]2(O)CCOCC2)cc1)C(=O)N[C@H]1c2ccccc2C[C@H]1O`
9.70

Subsequent entry: `CC(C)(C)OC(=O)N[C@@H](Cc1ccccc1)[C@@H](O)C[C@@H](Cc1ccc(OCCN2CCSCC2)cc1)C(=O)N[C@H]1c2ccccc2C[C@H]1O`
9.33

Subsequent entry: `CC(C)(C)OC(=O)N[C@@H](Cc1ccc(OCCN2CCOCC2)cc1)[C@@H](O)C[C@@H](Cc1ccc(OCCN2CCOCC2)cc1)C(=O)N[C@H]1c2ccccc2C[C@H]1O`
8.72
